target: UniProt:O42275; test: Inhibition of electric eel AChE
Sequence (O42275 whole entry): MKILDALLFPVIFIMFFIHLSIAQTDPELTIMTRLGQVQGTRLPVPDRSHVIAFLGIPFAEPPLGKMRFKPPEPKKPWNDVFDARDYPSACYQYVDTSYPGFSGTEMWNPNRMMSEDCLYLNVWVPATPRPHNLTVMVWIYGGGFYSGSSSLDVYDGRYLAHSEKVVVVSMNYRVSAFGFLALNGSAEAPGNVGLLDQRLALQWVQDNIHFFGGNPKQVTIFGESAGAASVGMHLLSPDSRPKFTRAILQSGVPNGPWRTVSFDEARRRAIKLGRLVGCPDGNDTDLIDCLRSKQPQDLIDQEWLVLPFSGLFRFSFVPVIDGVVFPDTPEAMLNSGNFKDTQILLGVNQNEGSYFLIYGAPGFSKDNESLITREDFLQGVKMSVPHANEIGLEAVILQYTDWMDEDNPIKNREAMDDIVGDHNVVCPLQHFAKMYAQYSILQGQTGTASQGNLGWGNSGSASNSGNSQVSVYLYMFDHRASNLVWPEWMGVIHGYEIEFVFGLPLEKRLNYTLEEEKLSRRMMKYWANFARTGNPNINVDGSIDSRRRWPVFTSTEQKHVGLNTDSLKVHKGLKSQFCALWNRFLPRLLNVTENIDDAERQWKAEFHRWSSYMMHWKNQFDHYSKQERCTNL
pIC50: −log10 of the molar value.
Reported pIC50 values for a set of molecules

Past entries and their recorded results:
>  <Molecule>
CCC(CC)CN[C@H](Cc1c[nH]c2ccccc12)C(=O)NCCN1CCc2ccccc2C1

>  <Data value>
< 5.00

$$$$
>  <Molecule>
COc1cccc(C(=O)OCc2ccccc2)c1OC(=O)N(C)OC

>  <Data value>
< 4.00

$$$$
>  <Molecule>
c1ccc(CN2CCC(NCCCCCCn3c4ccccc4c4ccccc43)CC2)cc1

>  <Data value>
4.58

$$$$
>  <Molecule>
CN(C)C(=O)Oc1ccc(C(=O)C2CCC(Cc3ccccc3)CC2)c(OC(=O)N(C)C)c1 (configuration not stated)

>  <Data value>
5.11

$$$$
>  <Molecule>
CON(C)C(=O)Oc1cc(C)ccc1C(=O)NCCc1c[nH]c2ccc(Cl)cc12

>  <Data value>
< 4.00

$$$$
>  <Molecule>
Fc1ccc2c(c1)c1c(n2CCN2CCCCC2)CCCC1

>  <Data value>
< 4.00

$$$$

API: the following record is the query input.
[Q] Given the molecule CCCCCCNC(=O)Oc1ccc2[nH]cc(CCNC(=O)c3ccccc3Nc3ccccc3)c2c1 , write its reported pIC50.
[A] < 4.00
